Recorded values, source patent US10221173B2.

target: recombinant human Estrogen Receptor alpha ligand binding domain (ER alpha-LBD (GST)) (Homo sapiens (Human)); test: ERα binding assay (LanthaScreen TR-FRET competition)
Entries and their IC50
Answer with a number only, understood to be in nM.

Examples from the recorded data:
* Cc1c(OCCNCCCF)ccc(F)c1[C@@H]1c2[nH]c3ccc(F)cc3c2C[C@@H](C)N1C[C@@H](C)C(=O)O [Example 121] | 2.8
* Cc1c(NCCNCCCF)ccc(F)c1[C@@H]1c2[nH]c3ccccc3c2C[C@@H](C)N1C[C@H](C)C(=O)O [Example 135] | 160
* C[C@@H]1Cc2c([nH]c3ccccc23)[C@@H](c2cc(OCCNCCCF)ccn2)N1CC(F)(F)F [Example 35] | 1.9
* Cc1c(OCCNCCCF)ccc(F)c1[C@@H]1c2[nH]c3ccccc3c2C[C@@H](C)N1CC(C)(C)C(=O)O [Example 119] | 6.9
* Cc1c(OCCN(C)CCCF)ncc(F)c1[C@@H]1c2[nH]c3ccccc3c2C[C@@H](C)N1C(C)CC(=O)O (single isomer, unassigned) [Example 158] | 1.5

Query: Entry C[C@@H](CN1[C@H](c2c(F)cnc(OCCNCCCF)c2Cl)c2[nH]c3ccccc3c2C[C@H]1C(F)F)C(=O)O [Example 139] needs its IC50 filled in; supply it.
Response: 1.5

Query: Entry COc1c(F)cc(OCCNCCCF)cc1[C@@H]1c2[nH]c3ccccc3c2C[C@@H](C)N1CC(F)(F)F [Example 27] needs its IC50 filled in; supply it.
Response: 2.7

Query: Entry C[C@@H]1Cc2c([nH]c3ccccc23)[C@@H](c2c(F)ccc(OCCNCCCF)c2F)N1CC(F)(F)F [Example 9] needs its IC50 filled in; supply it.
Response: 1.2

Query: Entry C[C@@H]1Cc2c([nH]c3ccccc23)[C@@H](c2cc(OCCNCCCF)cc(F)c2F)N1CC(F)(F)F [Example 30] needs its IC50 filled in; supply it.
Response: 2.1

Query: Entry Cc1c(OCCNCCCF)ccc(F)c1[C@@H]1c2[nH]c3ccccc3c2C[C@@H](C)N1CC(F)(F)C(=O)O [Example 118] needs its IC50 filled in; supply it.
Response: 1.2

Query: Entry Cc1c(OCCNCCC(F)F)ccc(F)c1[C@@H]1c2[nH]c3ccccc3c2C[C@@H](C)N1C[C@@H](C)C(=O)O [Example 123] needs its IC50 filled in; supply it.
Response: 11

Query: Entry C[C@@H]1Cc2c([nH]c3ccccc23)[C@@H](c2c(F)ccc(OCCN(C)CCCF)c2C(F)F)N1C[C@H](C)C(=O)O [Example 148] needs its IC50 filled in; supply it.
Response: 1.1

---

target: Estrogen Receptor (ERα) in MCF-7 cells (Homo sapiens (Human), UniProt P03372); experiment: Western blotting assay, ER down-regulation in MCF-7; format: cell-based; settings: MCF-7, 100 nM compound, 48 h, vs 100 nM fulvestrant
Sequence (P03372 whole entry): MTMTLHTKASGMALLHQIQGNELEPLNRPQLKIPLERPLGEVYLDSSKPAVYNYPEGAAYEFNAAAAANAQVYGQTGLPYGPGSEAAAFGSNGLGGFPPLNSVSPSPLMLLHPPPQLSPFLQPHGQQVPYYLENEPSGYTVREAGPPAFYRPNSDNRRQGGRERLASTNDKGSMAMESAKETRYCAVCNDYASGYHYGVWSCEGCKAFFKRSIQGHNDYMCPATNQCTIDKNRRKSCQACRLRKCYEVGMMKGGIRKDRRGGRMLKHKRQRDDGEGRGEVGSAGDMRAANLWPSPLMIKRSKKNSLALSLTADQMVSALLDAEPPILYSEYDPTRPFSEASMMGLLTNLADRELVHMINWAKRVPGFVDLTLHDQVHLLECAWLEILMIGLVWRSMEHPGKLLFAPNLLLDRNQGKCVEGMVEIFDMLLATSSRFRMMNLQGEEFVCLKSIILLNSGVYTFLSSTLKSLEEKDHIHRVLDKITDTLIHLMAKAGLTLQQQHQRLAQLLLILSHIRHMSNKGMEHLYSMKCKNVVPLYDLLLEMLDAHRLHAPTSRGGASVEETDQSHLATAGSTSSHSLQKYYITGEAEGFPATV
REPORTED_METRIC: MCF7 Western % ER deg vs Fv (%)
Answer with a number only, understood to be in %.

Examples from the recorded data:
* COc1ccc(OCCNCCCF)cc1[C@@H]1c2[nH]c3ccccc3c2C[C@@H](C)N1CC(F)(F)F | 100
* C[C@@H]1Cc2c([nH]c3ccccc23)[C@@H](c2c(F)ccc(OCCNCCCF)c2F)N1CC(F)(F)F | 97
* C[C@@H]1Cc2c([nH]c3ccccc23)[C@@H](c2cccc(OCCNCCCF)c2)N1CC1(F)COC1 | 79
* Cc1c(OCCNCCCF)ccnc1[C@@H]1c2[nH]c3ccccc3c2C[C@@H](C)N1CC(F)(F)CO | 94

Query: Entry `C[C@@H]1Cc2c([nH]c3ccccc23)[C@@H](c2c(F)ccc(OCCNCCCF)c2F)N1CC(F)(F)CO` needs its MCF7 Western % ER deg vs Fv filled in; supply it.
Response: 95

Query: Entry `C[C@@H]1Cc2c([nH]c3ccccc23)[C@@H](c2nccc(OCCNCCCF)c2F)N1CC(F)(F)F` needs its MCF7 Western % ER deg vs Fv filled in; supply it.
Response: 93

Query: Entry `C[C@@H]1Cc2c([nH]c3cc(F)ccc23)[C@@H](c2c(F)ccc(OCCNCCCF)c2F)N1CC(F)(F)CO` needs its MCF7 Western % ER deg vs Fv filled in; supply it.
Response: 94

Query: Entry `C[C@@H]1Cc2c([nH]c3c(F)cccc23)[C@@H](c2c(F)ccc(OCCNCCCF)c2F)N1CC(F)(F)CO` needs its MCF7 Western % ER deg vs Fv filled in; supply it.
Response: 92

Query: Entry `C[C@@H]1Cc2c([nH]c3ccccc23)[C@@H](c2cc(OCCNCCCF)ccc2Cl)N1CC(F)(F)F` needs its MCF7 Western % ER deg vs Fv filled in; supply it.
Response: 96

Query: Entry `C[C@@H]1Cc2c([nH]c3ccccc23)[C@@H](c2cc(OCCNCCCF)ccc2F)N1CC(F)(F)F` needs its MCF7 Western % ER deg vs Fv filled in; supply it.
Response: 94

Query: Entry `C[C@@H]1Cc2c([nH]c3ccccc23)[C@@H](c2c(F)ccc(OCCNCCCF)c2F)N1CC1(F)CC1` needs its MCF7 Western % ER deg vs Fv filled in; supply it.
Response: 92

Query: Entry `C[C@@H]1Cc2c([nH]c3ccccc23)[C@@H](c2c(F)ccc(OCCNCCCF)c2F)N1CC(F)F` needs its MCF7 Western % ER deg vs Fv filled in; supply it.
Response: 92

Query: Entry `C[C@@H]1Cc2c([nH]c3ccccc23)[C@@H](c2cc(OCCNCCCF)ccc2Cl)N1CC(F)(F)CO` needs its MCF7 Western % ER deg vs Fv filled in; supply it.
Response: 95

Query: Entry `C[C@@H]1Cc2c([nH]c3ccc(F)cc23)[C@@H](c2c(F)cnc(OCCNCCCF)c2F)N1CC(F)(F)CO` needs its MCF7 Western % ER deg vs Fv filled in; supply it.
Response: 94

Query: Entry `COc1cnc(OCCNCCCF)cc1[C@@H]1c2[nH]c3ccccc3c2C[C@@H](C)N1CC(F)(F)F` needs its MCF7 Western % ER deg vs Fv filled in; supply it.
Response: 92
